# Test system: Streptococcus pneumoniae
# assayRemarks: Determination of MIC values (BHI broth, 96 well microtiter plate)
# Type: cell-based
# condition: Streptococcus pneumoniae; BHI broth, 37° C., about 16 hours; read-out: MIC S. pneu
# Experimental: Stock solutions of compounds are prepared with a concentration of 10 mg/mL. These solutions are then diluted 1:4 to give a concentration of 2.5 mg/mL. The compounds are then serially diluted 1:2 for 6 iterations. The concentrations made for each compound are 2.5, 1.25, 0.625, 0.3125, 0.156, 0.078, and 0.039 mg/mL. A control sample (no compound) is run along with each compound tested. All dilutions are made in DMSO. […]
recordedMetric: MIC

Cc1ccc2nc(-c3c[nH]c4ccc(Br)cc34)ccc2c1: < 7 mg/L
Clc1ccc2nc(-c3c[nH]c4ccc(Br)cc34)c3c(c2c1)OCCC3: < 25 mg/L

Any idea what MIC was measured for COc1ccc2nc(-c3c[nH]c4ccc(C)cc34)ccc2c1 ?
> 25 mg/L

Note, next up: NCC(O)CNC(=O)c1cc(-c2c[nH]c3ccc(Br)cc23)nc2cc(Cl)cc(Cl)c12 (centres unmarked)
< 7 mg/L
